- system tested: T1, recombinant biotinylated monomeric Fc fusion of human Folate Receptor 3 (hu FolR3 ECD-AcTev-Fcknob-Avi tag … (human, UniProt P0DOX5 223-449 = IgG part, biotin on the C-terminal Avi tag))
- T1 construct: also called FolR3-Fc
- protocol notes: SPR ProteOn, Fab analyte on immobilized antigen-Fc
observed property: binding result

[
  {
    "binder": "15A1 Fab (Fab, V domains shown, bacterial Fab) VH: QVQLVQSGAEVKKPGASVKVSCKASGYTFTSYYMHWVRQAPGQGLEWMGIINPSGGSTSYAQKFQGRVTMTRDTSTSTVYMELSSLRSEDTAVYYCARNYYIGVVTFDYWGQGTLVTVSS VL: QAVVTQEPSLTVSPGGTVTLTCGSSTGAVTTSNYANWVQEKPGQAFRGLIGGTNKRAPGTPARFSGSLLGGKAALTLSGAQPEDEAEYYCALWYSNLWVFGGGTKLTVL",
    "result": "no binding"
  },
  {
    "binder": "16A3 Fab (Fab, V domains shown, bacterial Fab) VH: QVQLVQSGAEVKKPGASVKVSCKASGYTFTSYYMHWVRQAPGQGLEWMGIINPSGGSTSYAQKFQGRVTMTRDTSTSTVYMELSSLRSEDTAVYYCARNYYAGVTPFDYWGQGTLVTVSS VL: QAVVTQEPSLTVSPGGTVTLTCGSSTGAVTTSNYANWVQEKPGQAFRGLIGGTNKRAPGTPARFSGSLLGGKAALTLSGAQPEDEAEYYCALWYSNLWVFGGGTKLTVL",
    "result": "no binding"
  },
  {
    "binder": "20G6 Fab (Fab, V domains shown, bacterial Fab) VH: QVQLVQSGAEVKKPGASVKVSCKASGYTFTSYYMHWVRQAPGQGLEWMGIINPSGGSTSYAQKFQGRVTMTRDTSTSTVYMELSSLRSEDTAVYYCARGEWIRYYHFDYWGQGTLVTVSS VL: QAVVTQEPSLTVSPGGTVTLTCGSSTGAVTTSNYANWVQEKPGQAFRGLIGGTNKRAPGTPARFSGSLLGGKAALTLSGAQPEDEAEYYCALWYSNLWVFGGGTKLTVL",
    "result": "no binding"
  }
]
